Measured melting point, listed per entry for reference.

Look over these answered cases.
COMPOUND	ASSAY_RESULT
COC(=O)C=C1SC(=NN=Cc2cccc(O)c2)N(c2ccccc2)C1=O	236 to 238 °C
COC(=O)C=C1SC(=NN=Cc2ccccc2O)N(c2ccccc2)C1=O	242 to 244 °C
O=C(O)CC1SC(=NN=Cc2ccc(O)c(Br)c2)N(c2ccccc2)C1=O (stereo not drawn)	252 to 254 °C
CCOc1cc(C=NN=C2SCC(=O)N2c2ccc(F)cc2)ccc1O	240 to 242 °C
CCOc1cc(C=NN=C2SC(=CC(=O)OC)C(=O)N2c2ccccc2Cl)ccc1O	216 to 218 °C

Prompt line: What value of melting point has been reported for the following compound? O=C1CSC(=NN=Cc2ccc(O)c(Br)c2)N1c1ccc(Cl)cc1
Response line: 235 to 236 °C

Prompt line: Input CCOc1cc(C=NN=C2SCC(=O)N2c2ccc(Cl)cc2)ccc1O
Response line: 218 to 220 °C

Prompt line: Input CCOc1cc(C=NN=C2SC(CC(=O)O)C(=O)N2c2ccc(Cl)cc2)ccc1O (stereo not drawn)
Response line: 224 to 226 °C

Prompt line: Input COC(=O)C=C1SC(=NN=Cc2ccc(O)cc2)N(c2ccccc2)C1=O
Response line: 222 to 224 °C

Prompt line: Input O=C(O)CC1SC(=NN=Cc2ccc(O)cc2)N(c2ccccc2)C1=O (stereo not drawn)
Response line: 236 to 238 °C

Prompt line: Input COC(=O)C=C1SC(=NN=Cc2cccc(O)c2)N(c2ccc(Cl)cc2)C1=O
Response line: 222 to 224 °C

Prompt line: Input O=C1CSC(=NN=Cc2ccc(O)c(Cl)c2)N1c1ccccc1
Response line: 215 to 216 °C

###

Measured CC50 at 24 h, listed per entry for reference.
test: Cytotoxic assay (MTT, ISO 10993-5:2009(E)), 24 h treatment; assay type: cell-based; conditions: L929 mouse fibroblast cells, L929 mouse fibroblasts, values above highest tested concentration extrapolated
Respond with the bare value in µM.

MOLECULE	CC50 at 24 h, µM
COC(=O)C=C1SC(=NN=Cc2ccc(O)c(OC)c2)N(c2ccccc2)C1=O	486
COc1cc(C=NN=C2SC(CC(=O)O)C(=O)N2c2ccc(Cl)cc2Cl)ccc1O (centres unmarked)	566
COC(=O)C=C1SC(=NN=Cc2ccc(O)c(Br)c2)N(c2ccccc2)C1=O	428
O=C1CSC(=NN=Cc2ccc(O)cc2)N1c1ccc(Cl)cc1	318
O=C1CSC(=NN=Cc2cccc(O)c2)N1c1ccccc1Cl	188
O=C1CSC(=NN=Cc2ccc(O)cc2)N1c1cccc(Cl)c1	289

Consider the additional molecule presented here.
Prompt line: What value of CC50 at 24 h has been reported for the following molecule? O=C1CSC(=NN=Cc2ccc(O)cc2)N1c1ccc(F)cc1
Response line: 386

###

Measured melting point, listed per entry for reference.

COMPOUND	melting point
O=C(O)CC1SC(=NN=Cc2ccc(O)c(Br)c2)N(c2ccc(Cl)cc2)C1=O (stereo not shown)	254 to 255 °C

Prompt line: What value of melting point has been reported for the following compound? COc1cc(C=NN=C2SC(CC(=O)O)C(=O)N2c2ccc(Cl)cc2Cl)ccc1O (stereo not shown)
Response line: 226 to 228 °C

Prompt line: Input CCOc1cc(C=NN=C2SCC(=O)N2c2cccc(Cl)c2)ccc1O
Response line: 214 to 216 °C

Prompt line: Input O=C1CSC(=NN=Cc2ccc(O)cc2)N1c1ccccc1Cl
Response line: 178 to 180 °C

Prompt line: Input O=C(O)CC1SC(=NN=Cc2ccc(O)c(Cl)c2)N(c2ccc(Cl)cc2)C1=O (stereo not shown)
Response line: 256 to 257 °C

Prompt line: Input O=C1CSC(=NN=Cc2cccc(O)c2)N1c1ccc(Br)cc1
Response line: 242 to 244 °C

Prompt line: Input COC(=O)C=C1SC(=NN=Cc2ccc(O)cc2)N(c2ccc(Cl)cc2)C1=O
Response line: 250 to 251 °C

Prompt line: Input O=C1CSC(=NN=Cc2ccc(O)cc2)N1c1ccc(Cl)cc1
Response line: 280 to 282 °C

Prompt line: Input O=C1CSC(=NN=Cc2ccc(O)c(Cl)c2)N1c1ccc(Cl)cc1
Response line: 231 to 233 °C

Prompt line: Input O=C1CSC(=NN=Cc2cccc(O)c2)N1c1ccc(F)cc1
Response line: 204 to 206 °C

###

assay: Cytotoxic assay (MTT, ISO 10993-5:2009(E)), 24 h treatment; type: cell-based; conditions: L929 mouse fibroblast cells, L929 mouse fibroblasts, values above highest tested concentration extrapolated
MEASURED_ENDPOINT: CC50 at 24 h

COMPOUND	CC50 at 24 h
O=C(O)CC1SC(=NN=Cc2ccc(O)c(Cl)c2)N(c2ccc(Cl)cc2)C1=O (stereo not shown)	≥ 1 mM
Nc1ccc(S(=O)(=O)Nc2ncccn2)cc1 [Sulfadiazine, reference compound]	≥ 10 mM
COc1cc(C=NN=C2SC(CC(=O)O)C(=O)N2c2ccccc2)ccc1O (stereo not shown)	≥ 1 mM

Consider the additional compound presented here.
Prompt line: What value of CC50 at 24 h has been reported for the following compound? O=C(O)CC1SC(=NN=Cc2ccc(O)c(Br)c2)N(c2ccccc2)C1=O (stereo not shown)
Response line: ≥ 1 mM
